Assign self-splicing fitness (ln) to each entry below.
Run description: self-splicing fitness, log relative to wild type (ln ratio); higher = more splicing; Tetrahymena group I intron in knt gene, E. coli kanamycin selection, DiMSum; sequences stand for … in CUCUCU…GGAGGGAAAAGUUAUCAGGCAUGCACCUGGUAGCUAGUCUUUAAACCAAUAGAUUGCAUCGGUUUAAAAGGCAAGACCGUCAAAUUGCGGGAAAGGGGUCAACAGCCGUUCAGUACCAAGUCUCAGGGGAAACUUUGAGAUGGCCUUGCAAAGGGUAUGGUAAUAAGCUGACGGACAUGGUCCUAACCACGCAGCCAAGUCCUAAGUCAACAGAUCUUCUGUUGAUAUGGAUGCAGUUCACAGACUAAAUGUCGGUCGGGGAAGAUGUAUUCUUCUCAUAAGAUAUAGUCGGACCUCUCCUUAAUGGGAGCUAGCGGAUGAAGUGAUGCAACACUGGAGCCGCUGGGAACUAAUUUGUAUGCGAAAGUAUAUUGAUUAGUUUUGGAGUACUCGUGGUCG;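 further: selection with 25 µg/mL kanamycin versus none on LB agar overnight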
Run parameters: 30 °C

Return self-splicing fitness (ln) (reported value) for this sequence: CAGGAGCAAUAUUACGUGUG
-2.56

For GAAAAGCAAUAUUACGGCGC , write its self-splicing fitness (ln).
0.706

Answer with the recorded self-splicing fitness (ln) for the sequence listed here: AUACAGCAAUAUUACGGUAU
-3.46

Using known records, supply self-splicing fitness (ln) for UGACAGCAAUAUUACGCUGG
-2.21

Provide measured self-splicing fitness (ln) value, entry: UUUAAGCAAUAUUACGGCCA
-0.688

Give the reported self-splicing fitness (ln) for this sequence. UUCCAGCAAUAUUACGCCAG
-1.93

Fill in self-splicing fitness (ln) for record UGCUAGCAAUAUUACGUCGG
-2.68

Quote self-splicing fitness (ln) reported for GGCAAGCAAUAUUACGUAAC please.
-0.613

Dear colleague, please send me the reported self-splicing fitness (ln) for CCUCAGCAAUAUUACGGGCG when you can.
-1.59

Identify measured self-splicing fitness (ln) corresponding to UACUAGCAAUAUUACGAUAC
-2.63

Give self-splicing fitness (ln) for the following sequence: UUGGAGCAAUAUUACGCCUG
-2.22

Complete the entry with self-splicing fitness (ln) for CAAAAGCAAUAUUACGUGUA
-3.88

In one line, give reported self-splicing fitness (ln) of the entry AUAGAGCAAUAUUACGGAAA .
-2.73

Kindly indicate its recorded self-splicing fitness (ln). Item: CACAAGCAAUAUUACGACAC
-3.12

Determine from records and report self-splicing fitness (ln) for GAUGAGCAAUAUUACGGUAG
-2.01

Give the value of self-splicing fitness (ln) reported for the following: UCCAAGCAAUAUUACGCUGC
-2.94

Please list self-splicing fitness (ln) recorded for the sequence GCUUAGCAAUAUUACGGCUA
-0.299

Read the entry CAAAAGCAAUAUUACGCCAC and write its reported self-splicing fitness (ln).
-2.1

Indicate the recorded self-splicing fitness (ln) value for this sequence: CACUAGCAAUAUUACGGUAC
-3.09

Provide measured self-splicing fitness (ln) value, entry: UGCUAGCAAUAUUACGCUGG
-3.07

Return the recorded self-splicing fitness (ln) value; entry: ACUUAGCAAUAUUACGACGA
-0.777

Supply measured self-splicing fitness (ln) of GACCAGCAAUAUUACGAAGC in your reply.
-0.849

Hello, please tell me recorded self-splicing fitness (ln) for this one: AACCAGCAAUAUUACGUAGU
-1.99

Supply self-splicing fitness (ln) value. Item: AGUGAGCAAUAUUACGCGGC
-3.16

Identify measured self-splicing fitness (ln) corresponding to UUUUAGCAAUAUUACGUUCU
-3.48

Kindly indicate its recorded self-splicing fitness (ln). Item: CCCGAGCAAUAUUACGGAUU
-4.16

Please give measured self-splicing fitness (ln) of the following entry: UCCUAGCAAUAUUACGGGGU
-4.13

Entry GUGCAGCAAUAUUACGCGAG needs its self-splicing fitness (ln) filled in; supply it.
-2.55

Specify measured self-splicing fitness (ln) for CUGCAGCAAUAUUACGAGUU .
-3.55

In one line, give reported self-splicing fitness (ln) of the entry AUACAGCAAUAUUACGGUAG .
-1.54

Answer with the recorded self-splicing fitness (ln) for the sequence listed here: AGCUAGCAAUAUUACGAGUU
-2.58

Given AGGAAGCAAUAUUACGCACU , respond with its self-splicing fitness (ln).
-0.845

Tell us which self-splicing fitness (ln) value is on record for CGUGAGCAAUAUUACGUUGU
-4.24

Return the recorded self-splicing fitness (ln) value; entry: UGUUAGCAAUAUUACGACGA
-0.147

* * *

Run description: self-splicing fitness, log relative to wild type (ln ratio); higher = more splicing; Tetrahymena group I intron in knt gene, E. coli kanamycin selection, DiMSum; sequences stand for … in CUCUCU…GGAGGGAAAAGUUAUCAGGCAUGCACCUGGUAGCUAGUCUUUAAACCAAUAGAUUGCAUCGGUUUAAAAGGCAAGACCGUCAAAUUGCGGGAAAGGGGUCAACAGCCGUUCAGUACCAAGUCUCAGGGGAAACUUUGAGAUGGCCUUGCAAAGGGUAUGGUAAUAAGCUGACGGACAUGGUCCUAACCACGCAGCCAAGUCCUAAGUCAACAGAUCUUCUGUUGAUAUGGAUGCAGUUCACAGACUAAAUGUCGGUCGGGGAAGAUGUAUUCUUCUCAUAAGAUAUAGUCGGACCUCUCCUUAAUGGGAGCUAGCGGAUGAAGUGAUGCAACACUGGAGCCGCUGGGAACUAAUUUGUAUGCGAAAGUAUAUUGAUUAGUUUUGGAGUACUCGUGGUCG
Run parameters: 37 °C
Property measured: self-splicing fitness (ln)
Write the number on its own, no unit after it.

Fill in self-splicing fitness (ln) for record CUACAGCAAUAUUACGUCGU
-2.83

Determine its reported self-splicing fitness (ln): GAGAAGCAAUAUUACGUGCA
-0.666

// fetch self-splicing fitness (ln) given entry CACGAGCAAUAUUACGUGGC
-2.13

Give me measured self-splicing fitness (ln), please, for this sequence: UGGAAGCAAUAUUACGGCAG
-0.772

Respond only with self-splicing fitness (ln) recorded for UUUCAGCAAUAUUACGAAGU
0.335

Tell me self-splicing fitness (ln) reported for UGAAAGCAAUAUUACGUCUG
0.773

Please indicate self-splicing fitness (ln) recorded for UUAUAGCAAUAUUACGGGCU
-1.3

For the sequence UGUCAGCAAUAUUACGGGUG , report self-splicing fitness (ln).
-0.00626

Specify measured self-splicing fitness (ln) for AAACAGCAAUAUUACGCGGA .
-1.02

Answer with the recorded self-splicing fitness (ln) for the sequence listed here: UACUAGCAAUAUUACGUCAG
-1.43

Provide one value: measured self-splicing fitness (ln) of GAUCAGCAAUAUUACGGUCU
-1.9

Give me measured self-splicing fitness (ln), please, for this sequence: UGGUAGCAAUAUUACGGCAG
0.129

Hello, please tell me recorded self-splicing fitness (ln) for this one: GUAUAGCAAUAUUACGAUCA
-0.768

Item AGCUAGCAAUAUUACGGGCU : provide self-splicing fitness (ln)
-2.91

Report self-splicing fitness (ln), nothing else, for this sequence: AAUUAGCAAUAUUACGGAGC
-2.64

Using the record for CCAAAGCAAUAUUACGACGA , state its measured self-splicing fitness (ln).
-0.0538

Read off the recorded self-splicing fitness (ln) for CAUCAGCAAUAUUACGGGGC
-2.01

Item GGCGAGCAAUAUUACGCUUA : provide self-splicing fitness (ln)
-0.623

Kindly indicate its recorded self-splicing fitness (ln). Item: GUUAAGCAAUAUUACGUAUU
-0.277

For the sequence UUUCAGCAAUAUUACGGCAU , give its measured self-splicing fitness (ln) value.
-1.08

Provide self-splicing fitness (ln) value for the following sequence: CGUAAGCAAUAUUACGUUGC
-1.81

Quickly give me recorded self-splicing fitness (ln) for CACGAGCAAUAUUACGCUGA
-2.02

Hello, please tell me recorded self-splicing fitness (ln) for this one: AAGUAGCAAUAUUACGGGUA
-1.09

Quote self-splicing fitness (ln) reported for CGGCAGCAAUAUUACGAUCA please.
-0.194

Quickly give me recorded self-splicing fitness (ln) for CUGCAGCAAUAUUACGAGUU
-2.83

Consider the sequence CCUGAGCAAUAUUACGAAGA and give its recorded self-splicing fitness (ln).
-1.69

Given the sequence UAGUAGCAAUAUUACGCACU , write its reported self-splicing fitness (ln).
-0.331

Kindly indicate its recorded self-splicing fitness (ln). Item: GCCAAGCAAUAUUACGCUGA
-0.943

Name the recorded self-splicing fitness (ln) of the item CGGAAGCAAUAUUACGUCGU in your answer.
-2.21

Fill in reported self-splicing fitness (ln) for this entry: GGUAAGCAAUAUUACGGGCA
0.103

Item UAGUAGCAAUAUUACGCAAA : provide self-splicing fitness (ln)
-2.28

Provide measured self-splicing fitness (ln) value, entry: AGAAAGCAAUAUUACGAUGU
-0.229

State, in one line, measured self-splicing fitness (ln) of AGCGAGCAAUAUUACGUUUA
-1.96

Quick one: give measured self-splicing fitness (ln) for AGGUAGCAAUAUUACGAGCU
-0.123
